Sourced from BigSolDB 2.1

# assay.conditions: in 2-pentanone, 303.25 K
endpoint.label: solubility (mole fraction)

> print(dat)
          smiles.structure  endpoint.value
1  C=CC(=O)NC(C)(C)CC(C)=O           0.509

---

# assay.conditions: in isopentanol, 288.15 K
endpoint.label: solubility (mole fraction)

> print(dat)
          smiles.structure              endpoint.label  endpoint.value
1  C=CC(=O)NC(C)(C)CC(C)=O  solubility (mole fraction)            0.29

---

# assay.conditions: in ethyl acetate, 323.15 K
endpoint.label: solubility (mole fraction)

> print(dat)
          smiles.structure  endpoint.value
1  C=CC(=O)NC(C)(C)CC(C)=O            0.85
